# System: PC-3 prostate
# ASSAY_SUMMARY: NCI-60 one-dose screen, 48 h
# REPORTED_CONDITIONS: 10 µM
This is part of a sample that, as a whole, favours compounds with a hit. Of some 83,000 tested, about 20% had one in any assay. Calls of active or inactive are those of the source. How the source made its calls: active means growth percent below 10; inactive means the rest.
Bench note: report the call from active, inactive

Query string: Which outcome was assigned to "COc1cc(-c2cc(C(=O)N3CCN(C(=O)c4ccccc4NCc4cccs4)CC3)nc3cc(-c4ccccc4)nn23)cc(OC)c1OC" in this test?
Result string: inactive

Query string: Which outcome was assigned to "O=C(Nc1cccc(-n2cc(-c3ccncc3)c(-c3ccc(O)c(Cl)c3)n2)c1)Nc1cccc(C(F)(F)F)c1" in this test?
Result string: active

Query string: Which outcome was assigned to "O=S(=O)(Nc1ccccn1)c1ccc(N=Nc2ccc(O)c3ncccc23)cc1" in this test?
Result string: active

Query string: Which outcome was assigned to "COc1ccc(/C=C2/CN(C(=O)c3ccc(C)cc3)C/C(=C\c3ccc(OC)cc3)C2=O)cc1" in this test?
Result string: inactive

Query string: Which outcome was assigned to "N=C(N)c1ccc(-c2ccc(-c3cccs3)s2)s1" in this test?
Result string: active

Query string: Which outcome was assigned to "Clc1ccc(Sc2nc(NC3CC3)nc(Sc3ccc(Cl)cc3)n2)cc1" in this test?
Result string: inactive

Query string: Which outcome was assigned to "CC/C(C)=C(\C)C(=O)O" in this test?
Result string: inactive

Query string: Which outcome was assigned to "COc1ccc(/C=C/C(=O)Nc2ccc(-c3nc4ccc(F)cc4s3)cc2)cc1" in this test?
Result string: inactive

Query string: Which outcome was assigned to "CC(C)N(CCNc1nc(C(Cl)(Cl)Cl)nc2cc(Cl)ccc12)C(C)C" in this test?
Result string: active

Query string: Which outcome was assigned to COc1ccc(OC)c2c1C(=O)CC2C (stereo not given) in this test?
Result string: inactive

* * *

# System: MCF7 breast
# ASSAY_SUMMARY: NCI-60 one-dose screen, 48 h (100 = growth as untreated, 0 = no growth, -100 = all killed)
# REPORTED_CONDITIONS: 10 µM
Compounds without any hit were thinned out: in the full panel of roughly 83,000, 20% have a hit.
Could you please mark 1 for values of growth below 40% and 0 for values at or above it?

Query string: Please determine if "Fc1cc(C(F)(F)F)ccc1-c1cncnc1NC1CCCCCC1" is below 40% in terms of growth.
Result string: 0

Query string: Please determine if CCN(CC)CCCC(C)Nc1nc(-c2ccc(OC)cc2)nc2cc(Cl)ccc12 (stereo not given) is below 40% in terms of growth.
Result string: 0

Query string: Please determine if "O=C(Nc1cccc(-n2cc(-c3ccncc3)c(-c3cc(O)cc(Cl)c3)n2)c1)Nc1ccc(Cl)c(C(F)(F)F)c1" is below 40% in terms of growth.
Result string: 1

Query string: Please determine if "C[C@@H]1C=C2C(=O)O[C@@H]3CC[C@H](C1)[C@]23O" is below 40% in terms of growth.
Result string: 1

Query string: Please determine if "O=[N+]([O-])c1cccc(-c2ncc(-c3ccc(Cl)cc3Cl)[nH]2)c1" is below 40% in terms of growth.
Result string: 1

* * *

Assignment: determine reported growth for the given compounds.
# Test system: MDA-MB-435 melanoma
# ASSAY_SUMMARY: NCI-60 one-dose screen, 48 h (100 = growth as untreated, 0 = no growth, -100 = all killed)
# REPORTED_CONDITIONS: 10 µM
About 83,000 compounds went through this panel and 20% of them were active in at least one assay; those are over-represented in the sample as a whole.
Respond with the bare value in %.

Form field growth, entry "N#Cc1c(C#N)c(SSc2c(C#N)c(C#N)c(N)n2-c2ccccc2)n(-c2ccccc2)c1N" : 114

Form field growth, entry COc1ccc(CN2CCC(N3CCCC3=O)c3cc(Cl)ccc32)cc1 (centres undefined) : 119

Form field growth, entry "Nc1c(C(=O)Nc2cccc(F)c2)sc2nc3c(cc12)C(=O)CCC3" : -43.8

Form field growth, entry "COc1ccc(-c2nn(-c3cccc(NC(=O)Nc4ccc(Cl)c(C(F)(F)F)c4)c3)cc2-c2ccncc2)cc1Cl" : -24.3

Form field growth, entry "C#Cc1ccc(-n2c(/C=C/c3ccc(O)c(OC)c3)nc3ncccc3c2=O)cc1" : 71.2

Form field growth, entry "COc1ccc(Nc2nc3ccc(NC(=O)NC4CCCCC4)cc3[nH]c2=O)cc1" : 105

Form field growth, entry "O=C(Nc1ccc(OS(=O)(=O)c2ccccc2)cc1)C12CC3CC(CC(C3)C1)C2" : 72.6

Form field growth, entry "O=C1/C(=C/c2ccc(Cl)cc2)SC(=Nc2ccc(Cl)cc2)N1Cc1nc2ccccc2[nH]1" : 76.3

Form field growth, entry "COc1ccc(/C=C/C(=O)Nc2ccc(-c3nc4ccc(F)cc4s3)cc2)cc1" : 97

* * *

Assignment: determine reported growth for the given compounds.
# Tested on: SW-620 colon
# ASSAY_SUMMARY: NCI-60 one-dose screen, 48 h (100 = growth as untreated, 0 = no growth, -100 = all killed)
# REPORTED_CONDITIONS: 10 µM
Compounds without any hit were thinned out: in the full panel of roughly 83,000, 20% have a hit.
Respond with the bare value in %.

Form field growth, entry "N=C(N)c1ccc(-c2ccc(-c3ccccc3)o2)nc1" : 86.7

Form field growth, entry COc1cc2c(cc1OC)N(CCO)C1=C(C(=O)OC1)C2c1ccc(Cl)c(Cl)c1 (stereo not given) : 102

Form field growth, entry "CCOC(=O)c1ccc(NC(=O)Nc2ncc(Cl)cc2Cl)cc1" : 102

Form field growth, entry "N=C(N)c1ccc(-c2ccc(-c3cccs3)s2)cc1" : -66.2

Form field growth, entry CC(=O)C1CCC2C3CC(F)C4=CC(=O)CCC4(C)C3C(O)CC12C (stereo not given) : 109

Form field growth, entry O=C(O)CC(Cl)C(Cl)CC(=O)O (stereo not given) : 103

Form field growth, entry "COc1ccc(-c2nn(-c3cccc(NC(=O)c4ccc(Cl)c(Cl)c4)c3)cc2-c2ccncc2)cc1Cl" : 81.5

Form field growth, entry COc1ccc(CN2CCC(N3CCCC3=O)c3cc(Cl)ccc32)cc1 (stereo not given) : 102

Form field growth, entry "CN(C)CCN=c1nc2c(c(N)n1-c1ccccc1)c(=S)n(-c1ccccc1)c(=S)n2-c1ccccc1" : -59.1

Form field growth, entry "N#CCCN1C/C(=C/c2ccc(Br)cc2)C(=O)/C(=C/c2ccc(Br)cc2)C1" : -53.7

Form field growth, entry O=C(CC(NC(=O)OCc1ccccc1)C(=O)OCc1ccccc1)OCc1ccccc1 (stereo not given) : 91.6

Form field growth, entry "O=C1/C(=C/c2ccc(Cl)cc2)SC(=Nc2ccc(Cl)cc2)N1Cc1nc2ccccc2[nH]1" : 74.9

Form field growth, entry "COc1ccc(/C=C2/CN(CCC#N)C/C(=C\c3ccc(OC)cc3)C2=O)cc1" : -37.2

Form field growth, entry "COc1cc(/C=N/NC(=O)c2ccccc2Nc2cccc(C(F)(F)F)c2)cc(OC)c1OC" : 3.91

Form field growth, entry "Cn1c([N+](=O)[O-])cnc1/C=C1\Oc2ccc(Cl)cc2C1=O" : -61.6

Form field growth, entry "COC(=O)c1c(-c2ccccc2)csc1NC(=O)c1c(-c2ccccc2)noc1C" : 19.4

Form field growth, entry "c1ccc2c(c1)oc1c3cccnc3ccc21" : 100

Form field growth, entry "N#CCCN(NC(=O)OCc1ccccc1)C(=O)OCc1ccccc1" : 102

Form field growth, entry "N=c1c2c(-c3ccccc3)c(-c3ccccc3)n(Cc3ccccc3)c2ncn1CCCO" : 21.6

Form field growth, entry "COc1cc(-c2nnc(-c3c(-c4ccc(F)cc4)nc4ccccn34)o2)cc(OC)c1OC" : 90

Form field growth, entry CCCCCCCCCCCCCCCC(=O)OC1[C@@H](OC(=O)CCCCCCCCCCCCCCC)[C@@H](C(=O)N[C@@H](CCCCN)C(=O)OC)O[C@H]1n1cnc2c(=O)[nH]c(NC(=O)C(C)C)nc21 (stereo not given in full) : 104

Form field growth, entry "NC1(C(=O)O)CSSC1" : 99.4

Form field growth, entry "Cc1ccc(C(=O)Nc2cccc(F)c2)cc1NC(=O)C1(c2ncnc3[nH]ccc23)CC1" : 67

Form field growth, entry "CC/C(C)=C(\C)C(=O)O" : 105

Form field growth, entry "O=C1N=NC2=C1c1c3ccccc3c(O)n1CC2" : 106

Form field growth, entry "Cc1ccc(-c2nc(/C=C3/C(=O)N(C)c4ccc(F)cc43)c3ccccn23)cc1" : 105

Form field growth, entry "O=C(Nc1ccc(Cl)c(Cl)c1)Nc1c(Oc2ccc(Cl)c(Cl)c2)ccc(Cl)c1S(=O)(=O)O" : 23.6

Form field growth, entry "CCC(=O)N1C/C(=C/c2ccc(OC)cc2)C(=O)/C(=C/c2ccc(OC)cc2)C1" : -50.1

Form field growth, entry "CCCCOC(=O)Oc1ccc(C(=O)Oc2ccc(OCC)cc2)cc1" : 110

Form field growth, entry "O=S(=O)(NCCCNc1nccc(-c2c(-c3ccc(F)cc3)nc3sccn23)n1)c1ccc2ccccc2c1" : 51.9
